Values compiled from the DeepSol protein solubility set.

- method: soluble on expression in E. coli; label from the status in PepcDB or PDB records
observation_type: soluble on expression in E. coli

1. TTHKFEHPLNEKTRIYLRVESLLRQAHLASGFADNHQYQLFFRALFDMVEIFEQIQLKSELAKDLEKQRLSYRHWLNVEGVDQEALNSLLNEIDVVHSQLMGAERFGQALKEDRFLSSIRQRFNLPGGSCCFDLPALHYWLHLPIERKKHDANQWQKSLKPLSDALTLWLKLARETGHFKAQIARAGFFQSDADEANILRLHIPMKYGVYPMISGHKNRFAIKFMAFENGQACSQDVEFELAVC: soluble
2. MNVLFTSVPQEDVPFYQEALKDLSLKIYTTDVSKVPENELKKAELISVFVYDKLTEELLSKMPRLKLIHTRSVGFDHIDLDYCKKKGILVTHIPAYSPESVAEHTFAMILTLVKRLKRIEDRVKKLNFSQDSEILARELNRLTLGVIGTGRIGSRVAMYGLAFGMKVLCYDVVKREDLKEKGCVYTSLDELLKESDVISLHVPYTKETHHMINEERISLMKDGVYLINTARGKVVDTDALYRAYQRGKFSGLGLDVFEDEEILILKKYTEGKATDKNLKILELACKDNVIITPHIAYYTDKSLERIREETVKVVKAFVKGDLEQIKGNFVVGPS: soluble

----------
- method: soluble on expression in E. coli; label from the status in PepcDB or PDB records
observation_type: soluble on expression in E. coli

1) MGSDKIHHHHHHMKFFSLADEAEFKSIIISKNKAVDVIGSKLGGQVVSFSDEWFASAENLIQPTAPIRDPTRFVHSGAWYDGWETRRHNEMEYDWVIIKMGVAAAHIIGGEIDTAFFNGNHAPFVSIEALYDEGEEGNIVEDDSRWVEIVEKFECGPSQRHLFVRGNGLTKERFTHIKLKMYPDGGIARFRLYGRVVPPELKTKDHIIDLAYVCNGAVALKYSDQHFGSVDNLLLPGRGHDMSDGWETKRSRQPGHTDWAVIQLGRESSFIEKIIVDTAHFRGNFPQFITVEGCLKESESSENTGEGTWVELVGKSKTGPDKEHVYEIRKSIRVSHVKLTIIPDGGVKRIRVWGY: soluble
2) MLTGCSRRELLDDYPVSGVDIKLDWNGVTDKLPEGVRVIFYPKSAEGRKIDTYLSVRGGKVKVPPGRYSVVAYNYDTETVQIRGEEAYETIEAFTGYCNGLGIAGTEKMVWGPDPLYVVQIDDLHIANSEEELLLDWKPKLVVKTYFFKIKVEGLEYVSSIVGSVEGMAGCYCLGRCCGMMCDAPIYFEAQGRSGEVTGSFTAFGMPEAAISRAGDKIKLTLAFIKVDKTVQKAEIDITEVVTNSESGGSGGGNVDEPPTEIELPLDEKVKVEKPTTNPDGGGGGIGGDVGDWGDEDEVVLPVE: not soluble
3) MGLIKENRMDSLKVSDYMTLQAVTFSPDMSLSAALEKVVRSDNMGGPVIDAQRHVIGFLSEQDLLDKLVHASYHCQDAHLVSDCMHKEVLSVAPETSIIELAAMMKVGKPKMYPVVSDGKLVGVITRRDVLRALSKTLTNCFQHPV: not soluble
4) MGSDKIHHHHHHMDRILTFDCYGTLIDTKPVFDAISNIAKNNILNSKDAVNIYVNYEDRLMYGETYIPYDKLIKQVLEYCDMELVTNVFSKSYDEIISVHKRLKPFKEVVESLEKIHKKGYELALMSNSVHDIIDYNLDALGNVFNNVFLSEDIHAYKPQLKFFKYVEERLELKQKKHCHIAKGYWWDIVPCSKLGWRKIWVNRENKKGNKCHEPYEEVHTLDEVINLI: not soluble
5) MSLRDAKTWFTDTVLKDQNGRELRFYSDVLKDKVVMLNVIFTHCTDACPLITRKLREVREAMGPALAAQVTFVSISSDPLNDTPEALKAFAAKQGVDGPNWLFLTGDKANVDLVLGRIGQFLPSPEQHSTQLIAGDVAGKRWSKIRPDAPPAAIAQRMQLLTQPLAGREGHHHHHH: soluble

Input line: Given the entry MAHHHHHHMDAPEWTKDAQSIQGAKDYVRQASIVDFYEMICRNIFTHHPANLTEFCLRIVKDIMNGTEITSAADFQPKRIDDNKYMRDMAMCSFLDGWILELLRERPGTHLERMEFHKRYLEGLQSESDTGK , report its measured soluble on expression in E. coli.
Output line: soluble

Input line: Do the same for MAQSKILLYYKFTPIADPKAMMLWQRDMCELLGLKGRILISEHGINGTVGGDMDACKRYVRKMREYPGFRGTEFKWSDGGAEDFPKLSVKVRDEIVAFGAPGELKVDEKGVIGGGVHLKPEEVNKLVEERGDDVVFFDGRNAMEAQIGKFKNAVVPDVRTTHDFIRELESGKYDWMKDKPVVSYCTGGIRCEILSSLMKNRGFKEIYQIDGGIVRYGEKYGNDGLWEGSLYVFDRRMHMEFGNGVQDPGFIQLGHCVQCGAPTNKFEHCINEDECRELVLMCPDCYENPATRNCGREHCKEVAAEAAAAAAV please
Output line: not soluble
